# Tested on: CP305
# protocol.summary: qHTS profiling for inhibitors of Plasmodium falciparum proliferation (AID 504749); also: nearly all actives have a fitted effect of over 60% in size
# measurement.context: P. falciparum in erythrocytes, SYBR Green DNA, 72 h; series mostly up to 28.7 µM
# Protocol: NIH National Institute of Allergy and Infectious Diseases [NIAID] NIH Chemical Genomics Center [NCGC] […] Because mature erythrocytes lack DNA, only Plasmodium-derived DNA is detected. NCGC Assay Protocol Summary: The SYBR Green viability assay was adapted from a method described previously (Plouffe et al., 2008). […] The following morning, fluorescence intensity at 485(14) nm excitation and 535(25) nm emission wavelengths was measured on an EnVision (Perkin Elmer) plate reader. […]
Inconclusive results are not listed. The source made the active and inactive calls. Calls follow the shape of the dose curve; as a rule, active = well fitted inhibition curve with a large enough effect; inconclusive = small, poorly fitted or top-dose-only effect; inactive = flat fitted curve, though single readings scatter.
Could you please pick one outcome from this set? active, inactive

compound: CC12CCC(C[N+](C)(CCC[N+](C)(C)C)C1)C2(C)C (configuration not stated)
class.label: inactive
--
compound: CSc1nc2cc(Oc3cccc(Cl)c3Cl)c(Cl)cc2[nH]1
class.label: active
--
compound: FC(F)OC(Cl)C(F)(F)F (configuration not stated)
class.label: inactive
--
compound: O=C(NNCNNC(=O)c1ccncc1)c1ccncc1
class.label: inactive
--
compound: Nc1ncnc2c1ncn2[C@H]1CC[C@@H](CO)O1
class.label: inactive

Record lookup: outcome of this test for `OCC(O)CO` ? inactive

Record lookup: outcome of this test for `CC(C)c1ncc([N+](=O)[O-])n1C` ? inactive

---

# Test system: CP325
# protocol.summary: qHTS profiling for inhibitors of Plasmodium falciparum proliferation (AID 504749); also: nearly all actives have a fitted effect of over 60% in size
# measurement.context: P. falciparum in erythrocytes, SYBR Green DNA, 72 h; series mostly up to 28.7 µM
Records with an inconclusive call do not appear. The source made the active and inactive calls. Calls come from the whole dose curve; as a rule, active = well fitted inhibition curve with a large enough effect; inconclusive = small, poorly fitted or top-dose-only effect; inactive = flat fitted curve, though single readings scatter.
Could you please pick one outcome from this set? active, inactive

Observe how each entry below is paired with its result.
compound: C[Se]CC[C@H](N)C(=O)O
class.label: inactive

compound: N=C(N)c1ccc(/C=C/c2ccc(C(=N)N)cc2O)cc1
class.label: active

compound: CN1C(=O)C[C@@H](C(=O)N[C@@H](Cc2cnc[nH]2)C(=O)N2CCC[C@H]2C(N)=O)NC1=O
class.label: inactive

compound: [O-][N+](=Nc1ccccc1)c1ccccc1
class.label: inactive

Record lookup: outcome of this test for `COC1=C(OC)C(=O)C(C/C=C(\C)CC/C=C(\C)CC/C=C(\C)CC/C=C(\C)CC/C=C(\C)CC/C=C(\C)CC/C=C(\C)CC/C=C(\C)CC/C=C(\C)CCC=C(C)C)=C(C)C1=O` ? inactive

Record lookup: outcome of this test for `CC(=O)[C@H]1CC[C@H]2[C@@H]3C=CC4=CC(=O)CC[C@@]4(C)[C@H]3CC[C@]12C` ? inactive

Record lookup: outcome of this test for `COc1ccc(/C=C/C(=O)O)cc1` ? inactive

Record lookup: outcome of this test for `CC(C)[C@@H](N)C(=O)O` ? inactive

Record lookup: outcome of this test for `C(=C\c1ccncc1)/c1ccccc1` ? inactive

Record lookup: outcome of this test for `Oc1cc(O)cc(O)c1` ? inactive

Record lookup: outcome of this test for CCC(O)c1ccccc1 (configuration not stated) ? inactive

Record lookup: outcome of this test for `Cc1ncc(COP(=O)(O)O)c(CN)c1O` ? inactive

---

# System: CP256
# protocol.summary: qHTS profiling for inhibitors of Plasmodium falciparum proliferation (AID 504749); also: nearly all actives have a fitted effect of over 60% in size
# measurement.context: P. falciparum in erythrocytes, SYBR Green DNA, 72 h; series mostly up to 28.7 µM
Results filed as inconclusive are left out. Active and inactive are the calls of the source. Calls come from the whole dose curve; as a rule, active = well fitted inhibition curve with a large enough effect; inconclusive = small, poorly fitted or top-dose-only effect; inactive = flat fitted curve, though single readings scatter.
Could you please pick one outcome from this set? active, inactive

Record lookup: outcome of this test for `CN1CCC(OC(=O)C(Oc2ccc(Cl)cc2)Oc2ccc(Cl)cc2)CC1` ? inactive
